Value source: paper PMC10397247

Target: T1, 4H629-AA
T1 chain: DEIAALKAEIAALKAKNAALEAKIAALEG
Assay: two-hybrid library CCmax;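 note: natural log of median RNA to DNA barcode read ratio; higher means stronger binding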
Settings: mean of both orientations
API: label(entry) gives rule met if the entry's interaction score is strictly smaller than -1; on equality or larger values it gives rule not met.

Use the examples below as a reference point.
Record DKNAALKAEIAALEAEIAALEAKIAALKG [4H3590-AA] : is its interaction score strictly below -1? rule not met

Next entry: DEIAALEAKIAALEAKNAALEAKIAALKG [4H310-AA] rule not met

Follow-up item: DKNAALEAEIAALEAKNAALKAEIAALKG [4H3130-AA] rule met

Entry to check: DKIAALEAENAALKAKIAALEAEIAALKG [4H2274-AA] rule met

More entries:
Determine if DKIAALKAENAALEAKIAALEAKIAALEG [4H2725-AA] shows interaction score strictly lower than -1. rule not met
